Reported Ki values for a set of molecules
# EXPERIMENTAL SYSTEM: human GABAA α5β2γ1 receptor (Homo sapiens (Human), UniProt P31644+Q8N1C3)
# ASSAY INFO: Radioligand binding assay, competition for [3H]RO7239181, γ1-containing GABAA subtypes
# Method: The affinity of compounds at GABAA γ1 subunit-containing receptors was measured by competition for [^3H]RO7239181 (67.3 Ci/mmol; Roche) binding to membranes from HEK293F cells (ThermoFisher R79007) expressing human (transiently transfected) receptors of composition α5β2γ1, α2β2γ1, α1β2γ1. […]
MEASUREMENT TYPE: Ki (nM)

INSERT INTO assay_data (molecule, quantitative_result) VALUES
  ('C[C@@H]1N=C(c2c(F)cccc2F)c2c(sc3c2COCCO3)-n2nc(C(=O)NC3CC3)nc21', 3.66),
  ('C[C@@H]1N=C(c2c(F)cccc2F)c2c(sc3c2COCCO3)-n2cc(C(=O)NCC(C)(C)O)nc21', 2.27),
  ('Cc1nc2n(n1)-c1sc3c(c1C(c1c(F)cccc1F)=N[C@H]2C)COCCO3', 0.89),
  ('Cc1nnc2n1-c1sc3c(c1C(c1c(F)cccc1F)=N[C@H]2C)CCCC(O)C3 (mixture of isomers)', 5.67),
  ('CCOC1CN(C(=O)c2nc3n(n2)-c2sc4c(c2C(c2c(F)cccc2F)=N[C@H]3C)COCCO4)C1', 2.4),
  ('CCc1nnc2n1-c1sc3c(c1C(c1c(F)cccc1F)=N[C@H]2C)COCCO3', 2.9),
  ('C[C@@H]1N=C(c2c(F)cccc2F)c2c(sc3c2COCCO3)-n2c(C(F)F)nnc21', 13.5),
  ('Cc1nnc2n1-c1sc3c(c1C(c1c(F)cccc1F)=N[C@H]2C)CCC[C@H](F)C3 (single isomer, unassigned)', 1.77);

This collection of values is drawn from patent US20240294543A1.
